- measurement_notes: compounds binding Alexa647 anti-His antibody – biochemical, small-molecule microarray, 635 nm fluorescence, artefact control for SMM control protein annotation, primary screen (AID 1128);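 note: score merges feature fluorescence with signal-to-noise for each printed compound spot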
- condition_parameters: higher = more signal
Outcome: TRUE for composite z-score of at least -0.02; FALSE for anything lower.

1) O=C(NCc1ccccc1)[C@@H]1c2ccccc2C(=O)N(C2CCCCC2)[C@H]1c1ccc(CO)cc1 | TRUE
2) CCCCCN1CC=CC23O[C@@H]4C=CCCOC(=O)C4[C@H]2C(=O)N(CCCO)[C@@H]3C1=O (stereo not given in full) | TRUE
3) COc1ccc([Si](C)(C)[C@@H]2[C@@H](CCO)O[C@]3(C(=O)N(Cc4ccc(N5C(=O)c6cccc7cccc5c67)cc4)c4ccccc43)[C@H]2C)cc1 | FALSE
4) COCCn1c(C(=O)N2CCCC2)cc2c1C[C@H]1CN(C(=O)c3ccccc3)[C@@](Cc3ccc(OC)cc3)(C(=O)OC)[C@@H]21 | TRUE
5) C=CCC(OC(C)=O)[C@@H]1[C@@H](N(Cc2ccc(-c3cccc(C(F)(F)F)c3)o2)C(=O)c2ccc(C)cc2)c2cc(OCCCO)ccc2N1C(=O)c1ccc2ccccc2n1 (stereo not given in full) | FALSE

* * *

- system_tested: Alpha-bungarotoxin (Bungarus multicinctus) (UniProt P60615)
- Sequence (P60615 whole entry, looked up): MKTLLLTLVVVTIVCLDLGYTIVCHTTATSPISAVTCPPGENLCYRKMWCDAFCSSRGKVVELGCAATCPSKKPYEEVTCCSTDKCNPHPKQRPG
- measurement_notes: compounds binding labelled alpha-BTX control protein – biochemical, small-molecule microarray, Alexa647 label, 635/667 nm fluorescence, artefact control for SMM control protein annotation, profiling panel (AID 1117)
- condition_parameters: alpha-BTX-A647 binding fluorescence, higher = more signal
Short version: composite z-score at least 0.6 is Criterion met, less is Criterion not met.

1) CCN(CC)c1ccc(N2CC=CC34O[C@@H]5C=CCOC(=O)[C@@H]5[C@H]3C(=O)N(CCCCCO)[C@@H]4C2=O)cc1 (stereo partly specified) | Criterion not met
2) COCCOC(=O)N1C(=O)[C@@]2(c3cc(C#CCCO)ccc31)[C@H](c1ccc(O)cc1)N1[C@H](c3ccccc3)[C@H](c3ccccc3)OC(=O)[C@H]1[C@@H]2C(=O)N1CCCCCCC1 | Criterion met
3) COc1ccc(C(=O)Nc2cccc(CN3C(=O)[C@@]4(O[C@@H](CC(=O)N5Cc6ccccc6C[C@H]5CO)[C@H]([Si](C)(C)c5ccc(OC)cc5)[C@H]4C)c4ccccc43)c2)cc1 | Criterion met
4) CN(C)CCCC[C@@H]1NC(=O)[C@H]2C[C@@H](C(=O)NCCCCCNC(=O)CS)[C@@H](c3ccc(O)cc3)N2C1=O | Criterion met
5) Cc1ccc(S[C@]2(C(=O)NCC(F)(F)F)CC(=O)N(C3Cc4ccccc4C3)[C@@H]2c2ccc(CO)cc2I)cc1 | Criterion met
6) C=CCN1C(=O)[C@@]2(O[C@@H](CCO)[C@H]([Si](C)(C)c3ccc(OC)cc3)[C@H]2C)c2cc(NC(C)=O)ccc21 | Criterion met
7) C=CC[C@]1(C(=O)NCCN2CCOCC2)N=C(c2ccc(OCCCO)cc2)O[C@H]1c1ccccc1N=[N+]=[N-] | Criterion met
8) CC(c1ccccc1)C(O)C1C=CC2C(=O)N(c3ccccc3)C(=O)C2N1Nc1ccccc1F (stereo unspecified) | Criterion met
9) COc1ccc(C(O)C2C=CC3C(=O)N(c4ccccc4)C(=O)C3N2Nc2ccccc2)c2ccccc12 (stereo unspecified) | Criterion met
10) C=CCOC(=O)[C@@H]1[C@H]2C(=O)O[C@H](c3ccccc3)[C@H](c3ccccc3)N2[C@H](c2ccc(OCCOC(=O)[C@H]3C[C@H]4C(=O)N[C@@H](CCCC[N+](C)(C)C)C(=O)N4[C@H]3c3cccc(OCCO)c3)cc2)[C@@]12C(=O)Nc1ccc(I)cc12 | Criterion met
11) O=C1O[C@@H](c2ccccc2)[C@@H](c2ccccc2)N2[C@@H](c3ccc(O)cc3)[C@]3(C(=O)Nc4ccccc43)[C@@H](C(=O)N3CCCCCCC3)[C@H]12 | Criterion met
12) Cc1cccc(/C=C/C=O)c1 | Criterion not met
13) CN1C(=O)C2C=CC(C(O)C(C)(C)C)N(Nc3ccccc3)C2C1=O (stereo unspecified) | Criterion not met
14) CC[C@@H]1C=C(C(=O)O)[C@H](c2ccc(C(C)C)cc2)N1S(=O)(=O)c1ccc(C)cc1 | Criterion met
15) COCCOC(=O)N1C(=O)[C@@]2(c3ccccc31)[C@H](c1ccc(O)cc1)N1[C@H](c3ccccc3)[C@H](c3ccccc3)OC(=O)[C@H]1[C@@H]2C(N)=O | Criterion not met
16) Cc1ccc(S[C@]2(C(=O)NCC(C)C)CC(=O)N(Cc3ccccc3)[C@@H]2c2ccc(CO)cc2)cc1 | Criterion not met
17) C=CC[C@@]1(C(N)=O)N=C(c2ccc(OCCCO)cc2)O[C@@H]1c1ccccc1N=[N+]=[N-] | Criterion met
18) CCN(CC)c1ccc(N2CC=CC34O[C@@H]5/C=C\CCCOC(=O)C5[C@H]3C(=O)N(CCCO)[C@@H]4C2=O)cc1 (stereo partly specified) | Criterion not met
19) COc1ccc([Si](C)(C)[C@H]2[C@H](CC(=O)N3CCC[C@H]3CO)O[C@@]3(C(=O)N(Cc4cccc(N5CCC5=O)c4)c4ccccc43)[C@@H]2C)cc1 | Criterion met
20) CC(C)OC(=O)C1=CCC(c2cccc(Cl)c2)O1 (stereo unspecified) | Criterion not met
21) O=C1OCCC=C[C@H]2OC34C=CCN(CCN5CCOCC5)C(=O)[C@H]3N(CCO)C(=O)[C@@H]4C12 (stereo partly specified) | Criterion not met
22) C=C(CCCC)C(=O)CC[C@@H](OC(=O)c1ccccc1-c1ccccc1C(=O)O)c1ccc(CO)o1 | Criterion not met
23) Cc1ccc([C@H]2C(C(=O)O)=C[C@@H](C(C)C)N2S(=O)(=O)c2ccc(C)cc2)cc1 | Criterion not met
24) [N-]=[N+]=NCc1ccccc1C[C@]1(C(N)=O)N=C(c2ccc(OCCCO)cc2)O[C@H]1c1ccccc1N=[N+]=[N-] | Criterion met

* * *

- measurement_notes: probe aEGFR binding to arrayed compounds – biochemical, biotinylated probe, 635/667 nm fluorescence, primary screen (AID 1097);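 note: probe is a biotinylated anti-EGFR antibody binding compounds printed on slides; score combines fluorescence near 667 nm and signal to noise of each spot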
- condition_parameters: small-molecule microarray, higher = more signal
observation_type: composite z-score

1. CCOC1=C2C(c3ccc(C)cc3)N(S(=O)(=O)c3ccc(C)cc3)CC2n2c(=O)n(-c3ccccc3)c(=O)n2C1 (stereo not drawn) | 0.0201
2. C=CC[C@]1(C(=O)NCCN2CCOCC2)N=C(c2ccc(OCCCO)cc2)O[C@H]1c1ccccc1N=[N+]=[N-] | 0.509
3. CC(c1ccccc1)C(O)C1C=CC2C(=O)N(c3ccccc3)C(=O)C2N1Nc1ccccc1F (stereo not drawn) | -0.0192
4. Cc1cc(C)c(C(O)C2C=CC3C(=O)NC(=O)C3N2Nc2ccccn2)c(C)c1 (stereo not drawn) | 0.0221
5. C=C(CCCC)C(=O)CC[C@@H](OC(=O)c1ccccc1-c1ccccc1C(=O)O)c1ccc(CO)o1 | 0.0068
6. CC(C)(C)OC(=O)CC[C@]1(C(=O)NCC(O)CO)N=C(c2ccc(OCCCO)cc2)O[C@H]1c1ccccc1CN=[N+]=[N-] (stereo partly drawn) | 0.61
7. CC1(C)C(=O)C(c2ccccc2)=C2CN3C(=O)N(CCc4ccccc4)C(=O)C3(Cc3ccccc3)C=C21 (stereo not drawn) | 0.164
8. COc1ccc([Si](C)(C)[C@@H]2[C@@H](CCO)O[C@]3(C(=O)N(Cc4ccccc4)c4ccc(N(C=O)c5ccccc5)cc43)[C@H]2C)cc1 | -0.189

* * *

- system_tested: Albumin (Bos taurus) (UniProt P02769)
- Sequence (P02769 whole entry, looked up): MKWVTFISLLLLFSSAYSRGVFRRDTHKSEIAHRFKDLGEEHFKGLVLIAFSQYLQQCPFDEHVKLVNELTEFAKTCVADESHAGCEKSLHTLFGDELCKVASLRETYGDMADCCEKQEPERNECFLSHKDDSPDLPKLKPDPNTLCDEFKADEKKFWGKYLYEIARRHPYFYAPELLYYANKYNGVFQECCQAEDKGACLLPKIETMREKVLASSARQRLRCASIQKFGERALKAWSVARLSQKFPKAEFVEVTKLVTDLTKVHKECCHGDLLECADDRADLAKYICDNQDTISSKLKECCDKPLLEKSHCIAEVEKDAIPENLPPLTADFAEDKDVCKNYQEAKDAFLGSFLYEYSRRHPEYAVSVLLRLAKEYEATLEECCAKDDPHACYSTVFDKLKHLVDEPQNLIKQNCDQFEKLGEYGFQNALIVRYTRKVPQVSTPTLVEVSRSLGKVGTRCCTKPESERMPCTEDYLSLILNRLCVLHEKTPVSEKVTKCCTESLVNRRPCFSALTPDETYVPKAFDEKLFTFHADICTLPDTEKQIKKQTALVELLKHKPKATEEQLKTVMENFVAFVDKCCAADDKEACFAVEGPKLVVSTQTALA
- measurement_notes: compounds binding labelled BSA control protein – biochemical, small-molecule microarray, Alexa647 label, 635/667 nm fluorescence, artefact control for SMM control protein annotation, profiling panel (AID 1118);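 note: score merges 667 nm emission intensity and signal-to-noise per printed compound spot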
- condition_parameters: BSA-A647 binding, fluorescence 635 nm, higher = more signal
Record condition met whenever composite z-score is at 0.7 or higher; record condition not met when lower.

1. O=C1C2C=CC(C(O)c3ccc(-c4ccccc4)s3)N(Nc3ccccc3F)C2C(=O)N1c1ccccc1 (stereo not given) | condition met
2. CC1CC/C=C\[C@H]2OC34C=CCN(Cn5nnc6ccccc65)C(=O)[C@H]3N(CCCO)C(=O)[C@@H]4C2C(=O)O1 (stereo not given in full) | condition met
3. CC(C)[Si]1(C(C)C)O[C@@H](c2ccccc2)c2cc(-c3ccc(-c4ccc(Cl)c(Cl)c4)o3)nc(CCc3ccccc3)c21 | condition not met
4. CC(=O)NCCCC[C@@H]1NC(=O)[C@@H]2C[C@H](C(=O)NCc3ccc(F)cc3)[C@H](c3ccc(O)cc3)N2C1=O | condition not met
5. NC(=O)NCC#Cc1ccc2c(c1)[C@]1(C(=O)N2)[C@H](c2ccccc2OCCO)N2[C@H](c3ccccc3)[C@H](c3ccccc3)OC(=O)[C@H]2[C@@H]1C(=O)N1CCCCCCC1 | condition not met
6. COCCCNC(=O)[C@@]1(Cc2ccccc2I)c2ccccc2C(=O)N(Cc2ccccc2)[C@H]1c1ccc(CO)cc1 | condition not met
7. CC(C)(C)OC(=O)CC[C@@]1(C(N)=O)N=C(c2ccc(OCCCO)cc2)O[C@@H]1c1ccccc1N=[N+]=[N-] | condition not met
8. COCC1C2CC[C@H]3C(OCc4ccc(F)cc4C(F)(F)F)OC[C@]4(C)[C@H]3C2=C(CN4C(=O)OC(C)(C)C)[C@H](C)C1COC (stereo not given in full) | condition met
9. O=C1OCC=C[C@H]2OC34C=CCN(c5ccc(Cl)cc5)C(=O)[C@H]3N(CCCO)C(=O)[C@@H]4[C@@H]12 (stereo not given in full) | condition not met
10. C/C=C/[C@H](CCn1cc([C@H](O)c2ccccc2)nn1)[Si](C)(C)c1ccc(OC)cc1 | condition not met
11. O[C@@H](Cc1ccccc1)[C@@H](/C=C/c1ccccc1)NCc1ccccc1Br | condition not met
12. CCCC[C@@H]1C[C@H]1[C@@H](NC(=O)c1ccccc1)c1ccc(-c2ccccc2)cc1 | condition met
13. CC(=O)N1Cc2ccccc2C[C@@]2(N=C(c3ccc(OCCCO)cc3)O[C@H]2c2ccccc2)C1=O | condition not met
14. C[N+](C)(C)CCCC[C@@H]1NC(=O)[C@H]2C[C@@H](C(=O)O)[C@@H](c3cccc(OCCO)c3)N2C1=O | condition met
15. CCCCN1CC=CC23O[C@@H]4/C=C\CCCOC(=O)C4[C@H]2C(=O)N(C(C)CO)[C@@H]3C1=O (stereo not given in full) | condition met
16. CS(=O)(=O)CCOC(=O)C1=CC(c2ccc(CO)cc2)=CC(c2cccs2)N(Cc2cccc(OC(F)(F)F)c2)C=C1C(=O)OCCS(C)(=O)=O (stereo not given) | condition met
17. COC(=O)[C@@]1(Cc2ccc(F)cc2)[C@H]2c3cc(C(=O)N(C)C)n(CCCNc4ccc(C(F)(F)F)cc4Cl)c3C[C@H]2CN1C(=O)c1ccccc1 | condition met
18. O=C1O[C@@H](c2ccccc2)[C@@H](c2ccccc2)N2[C@@H](c3ccccc3OCCO)[C@]3(C(=O)Nc4ccc(C#CC5(O)CCCCCC5)cc43)[C@@H](C(=O)NC[C@H](O)c3ccccc3)[C@H]12 | condition not met
19. O=C1OCCC=C[C@H]2OC34C=CCN(c5ccc6ccccc6c5)C(=O)[C@H]3N(CCCCCCO)C(=O)[C@@H]4C12 (stereo not given in full) | condition not met
20. CCCC[C@H]1C[C@@H]1[C@@H]1N(P(=O)(c2ccccc2)c2ccccc2)[C@](CO)(c2ccccc2)CC12CC2 | condition met
21. CCCNC(=O)[C@@]1(C)c2ccccc2C(=O)N(C(C)C)[C@H]1c1ccc(CO)cc1 | condition not met
22. COCCOC(=O)N1C(=O)[C@@]2(c3cc(C#CC4=CCCCC4)ccc31)[C@H](C(=O)N1CCN(c3ncccn3)CC1)[C@H]1C(=O)O[C@H](c3ccccc3)[C@H](c3ccccc3)N1[C@@H]2c1ccc(OCCO)cc1 | condition not met
23. Cc1ccc(S(=O)(=O)N2CC(C(=O)O)=CCC2c2ccccc2)cc1 (stereo not given) | condition not met

The reported numbers originate from PubChem BioAssay.
